- method: Selectivity ratio of Ki for human CB2 receptor to Ki for CB1 receptor in mouse whole brain membranes
- Assay type: cell membranes
Threshold check on Ratio Ki: strictly below 0.8 is y; on or above 0.8 is n.

[
  {
    "compound": "O=C(NN1CCCCCC1)c1nn(-c2ccc(Cl)cc2Cl)c2c1CCCc1cc(Cl)ccc1-2",
    "answer-label": "n"
  },
  {
    "compound": "Cc1ccc(Cn2nc(C(=O)NCC3CCC4CC3C4(C)C)c3c2-c2ccc(Cl)cc2CCC3)cc1 (stereo not drawn)",
    "answer-label": "y"
  },
  {
    "compound": "O=C(NCC1CCCCC1)c1nn(-c2ccc(Cl)cc2Cl)c2c1CCCc1cc(Cl)ccc1-2",
    "answer-label": "n"
  },
  {
    "compound": "Cc1ccc(Cn2nc(C(=O)NCC3CCC4CC3C4(C)C)c3c2-c2cc(Cl)ccc2CCC3)cc1 (stereo not drawn)",
    "answer-label": "y"
  },
  {
    "compound": "CC1(C)C2CCC(CNC(=O)c3nn(-c4ccc(Cl)cc4Cl)c4c3CCCc3cc(Cl)ccc3-4)C1C2 (stereo not drawn)",
    "answer-label": "n"
  },
  {
    "compound": "O=C(CC1CCCCC1)c1nn(-c2ccc(Cl)cc2Cl)c2c1CCCc1cc(Cl)ccc1-2",
    "answer-label": "n"
  },
  {
    "compound": "O=C(NN1CCCC1)c1nn(-c2ccc(Cl)cc2Cl)c2c1CCCc1cc(Cl)ccc1-2",
    "answer-label": "n"
  }
]

* * *

- test-target: Cannabinoid receptor 1 (Mus musculus, UniProt P47746)
- Sequence (P47746 whole entry): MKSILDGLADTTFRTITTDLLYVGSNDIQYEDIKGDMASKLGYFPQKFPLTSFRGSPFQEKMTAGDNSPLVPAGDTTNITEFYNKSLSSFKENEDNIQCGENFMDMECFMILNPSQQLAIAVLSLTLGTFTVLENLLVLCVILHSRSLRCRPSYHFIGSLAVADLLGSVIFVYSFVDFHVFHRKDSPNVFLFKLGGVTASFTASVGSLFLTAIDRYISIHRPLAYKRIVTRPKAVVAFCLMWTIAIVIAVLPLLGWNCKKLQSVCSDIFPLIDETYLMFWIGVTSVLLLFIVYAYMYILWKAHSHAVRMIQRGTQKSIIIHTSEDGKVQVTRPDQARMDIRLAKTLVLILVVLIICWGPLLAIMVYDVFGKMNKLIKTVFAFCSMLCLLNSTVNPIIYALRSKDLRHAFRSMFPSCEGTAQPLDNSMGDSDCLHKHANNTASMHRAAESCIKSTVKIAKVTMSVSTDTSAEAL
- method: Displacement of [3H]-CP55,940 from CB1 receptor in mouse whole brain membranes after 60 mins by liquid scintillation spectrometry
pKi: −log10 of the molar value.
pKi vs 8: at or above is criterion met, below is criterion not met.

[
  {
    "compound": "Cc1ccc(Cn2nc(C(=O)NCC3CCC4CC3C4(C)C)c3c2-c2ccc(Cl)cc2CCC3)cc1 (stereo not given)",
    "answer-label": "criterion not met"
  },
  {
    "compound": "CC1(C)C2CCC(CNC(=O)c3nn(-c4ccc(Cl)cc4Cl)c4c3CCCc3ccc(Cl)cc3-4)C1C2 (stereo not given)",
    "answer-label": "criterion not met"
  },
  {
    "compound": "CCCCCCC(C)(C)c1ccc([C@@H]2C[C@H](O)CC[C@H]2CCCO)c(O)c1",
    "answer-label": "criterion met"
  }
]

Taken from ChEMBL document CHEMBL3856211.
